Item-by-item account of LC retention time
assay explanation: RP, Waters ACQUITY UPLC BEH C18, 100 × 2.1 mm, 1.7 µm, 0.3 mL/min, estimated dead time 0.73 min; A: water + 0.1% formic acid, pH 3; B: methanol + 0.1% formic acid, pH 3; gradient (min/%B) 0/10 14/90 16/90 18/10
condition context: stereoisomer not certain
measured metric: LC retention time (min)

- compound: "CCCCC1=NC2(CCCC2)C(=O)N1Cc1ccc(-c2ccccc2-c2nn[nH]n2)cc1"
  measured metric: "LC retention time"
  observed result: 10.4
- compound: "O=C(O)c1cn(C2CC2)c2cc(N3CCNCC3)c(F)cc2c1=O"
  measured metric: "LC retention time"
  observed result: 3.93
- compound: "CCCSP(=O)(OCC)SCCC"
  measured metric: "LC retention time"
  observed result: 11.1
- compound: "CCS(=O)Cc1ccccc1OC(=O)NC (centres undefined) [Ethiofencarb sulfoxide]"
  measured metric: "LC retention time"
  observed result: 4.6
- compound: "CC(C)Cc1ccc(C(C)C(=O)O)cc1 (centres undefined)"
  measured metric: "LC retention time"
  observed result: 12.4
- compound: "CCCCNC(=O)n1c(NC(=O)OC)nc2ccccc21"
  measured metric: "LC retention time"
  observed result: 11.6
- compound: "CC(C)(C)NCC(O)c1ccc(O)c(CO)c1 (centres undefined)"
  measured metric: "LC retention time"
  observed result: 2.03
- compound: "COCCOc1ccccc1S(=O)(=O)NC(=O)Nc1nc(OC)nc(OC)n1"
  measured metric: "LC retention time"
  observed result: 6.25
- compound: "O=C(NC(=O)c1ccccc1Cl)Nc1ccc(OC(F)(F)F)cc1"
  measured metric: "LC retention time"
  observed result: 12

---

assay explanation: RP, Waters ACQUITY UPLC BEH C18, 100 × 2.1 mm, 1.7 µm, 0.3 mL/min, estimated dead time 0.73 min; A: water + 0.1% formic acid, pH 3; B: methanol + 0.1% formic acid, pH 3; gradient (min/%B) 0/10 14/90 16/90 18/10
condition context: stereoisomer not certain
Quick rule for you: LC retention time under 10 min gets t, anything else gets f.

- compound: "Cc1cccc(C)c1N(C(=O)CCl)C1CCOC1=O (centres undefined)"
  group label: "t"
- compound: "CSc1nc(N)nc(NC(C)(C)C)n1"
  group label: "t"
- compound: "CC1(C)CN=C(NN=C(C=Cc2ccc(C(F)(F)F)cc2)C=Cc2ccc(C(F)(F)F)cc2)NC1 [Hydramethylnon]"
  group label: "f"
- compound: "COc1cc2c(c3oc(=O)c4c(c13)CCC4=O)C1(O)C=COC1O2 (centres undefined)"
  group label: "t"
- compound: "CCNc1nc(Cl)nc(NCC)n1"
  group label: "t"
- compound: "CC(C)(C)c1ccc(CSc2cnn(C(C)(C)C)c(=O)c2Cl)cc1"
  group label: "f"
- compound: "CC(C(=O)O)c1cccc(C(=O)c2ccccc2)c1 (centres undefined)"
  group label: "f"
- compound: "CCCCC(CC)COC(=O)CCCCC(=O)OCC(CC)CCCC (centres undefined) [Bis-(2-ethylhexyl) adipate]"
  group label: "f"
- compound: "CC(=O)Nc1c(C)n(C)n(-c2ccccc2)c1=O [4-Acetylamino-Antipyrine]"
  group label: "t"
- compound: "CN(C)C(=O)Nc1cccc(C(F)(F)F)c1"
  group label: "t"
- compound: "CCOCN(C(=O)CCl)c1c(C)cccc1CC"
  group label: "f"
- compound: "O=C(NC(CO)C(O)c1ccc([N+](=O)[O-])cc1)C(Cl)Cl (centres undefined)"
  group label: "t"
- compound: "CC1=NNC(=O)N(N=Cc2cccnc2)C1"
  group label: "t"
- compound: "CN=C(NC#N)NCCSCc1nc[nH]c1C"
  group label: "t"
- compound: "CCC(=O)OCC(=O)C1(OC(=O)CC)C(C)CC2C3CCC4=CC(=O)C=CC4(C)C3(Cl)C(O)CC21C (centres undefined) [Beclometasone dipropionate]"
  group label: "f"
- compound: "CC(=O)Oc1ccc2c3c1OC1C(OC(C)=O)C=CC4C(C2)N(C)CCC341 (centres undefined)"
  group label: "t"
- compound: "CCCCCC(C)OC(=O)COc1ccc(Cl)c2cccnc12 (centres undefined)"
  group label: "f"

---

assay explanation: RP, Waters ACQUITY UPLC BEH C18, 100 × 2.1 mm, 1.7 µm, 0.3 mL/min, estimated dead time 0.73 min; A: water + 0.1% formic acid, pH 3; B: methanol + 0.1% formic acid, pH 3; gradient (min/%B) 0/10 14/90 16/90 18/10
condition context: stereoisomer not certain
Assign a class from recorded LC retention time; defined classes: low group = under 8 min, middle group = from 8 min up to 10 min, high group = 10 min and over

- molecule: "CSc1nnc(C(C)(C)C)c(=O)n1N [Metribuzin]"
  group label: "low group"
- molecule: "COC(=O)C(C)N(C(=O)c1ccccc1)c1ccc(F)c(Cl)c1 (stereo not given) [Flamprop-methyl]"
  group label: "high group"
- molecule: "COc1cc(OC)n2nc(S(=O)(=O)Nc3c(Cl)ccc(C)c3Cl)nc2n1 [Metosulam]"
  group label: "low group"
- molecule: "Nc1ccc(S(=O)(=O)NC(=O)c2ccccc2)cc1 [Sulfabenzamide]"
  group label: "low group"
- molecule: "CCC(=O)Nc1ccc(Cl)c(Cl)c1 [Propanil]"
  group label: "high group"
- molecule: "CCOP(=O)(OCC)OC(=CCl)c1ccc(Cl)cc1Cl [Chlorfenvinphos]"
  group label: "high group"
- molecule: "CC12CCC(=O)C=C1CCC1C2C(O)CC2(C)C1CCC2(O)C(=O)CO (stereo not given) [Hydrocortisone]"
  group label: "middle group"
- molecule: "CCOC(=O)CC(SP(=S)(OC)OC)C(=O)OCC (stereo not given) [Malathion]"
  group label: "high group"
- molecule: "CCCOCCN(C(=O)CCl)c1c(CC)cccc1CC [Pretilachlor]"
  group label: "high group"
- molecule: "CCCCc1c(C)nc(NCC)[nH]c1=O [Ethirimol]"
  group label: "middle group"
- molecule: "CN(C)CCCN1c2ccccc2Sc2ccc(C(F)(F)F)cc21 [Triflupromazine]"
  group label: "high group"
- molecule: "CCOP(=O)(SC(C)CC)N1CCSC1=O (stereo not given) [Fosthiazate]"
  group label: "middle group"
- molecule: "COc1cc(OC)nc(NC(=O)NS(=O)(=O)N(C)S(C)(=O)=O)n1 [Amidosulfuron]"
  group label: "low group"
- molecule: "CCCSP(=O)(OCC)Oc1ccc(Br)cc1Cl (stereo not given) [Profenofos]"
  group label: "high group"
- molecule: "CCc1cccc(C)c1N(C(=O)CCl)C(C)COC (stereo not given) [Metolachlor]"
  group label: "high group"
- molecule: "COC(=O)Nc1nc2ccc(S(=O)c3ccccc3)cc2[nH]1 (stereo not given) [Oxfendazole]"
  group label: "low group"
- molecule: "COc1ccc(NC(=O)N(C)C)cc1Cl [Metoxuron]"
  group label: "low group"
- molecule: "Cc1cnc2c(C(=O)O)c(Cl)ccc2c1 [Quinmerac]"
  group label: "low group"

---

Item-by-item account of LC retention time
assay explanation: RP, Waters ACQUITY UPLC BEH C18, 100 × 2.1 mm, 1.7 µm, 0.3 mL/min, estimated dead time 0.73 min; A: water + 0.1% formic acid, pH 3; B: methanol + 0.1% formic acid, pH 3; gradient (min/%B) 0/10 14/90 16/90 18/10
condition context: stereoisomer not certain

- molecule: "COC(=O)c1cc(Oc2ccc(Cl)cc2Cl)ccc1[N+](=O)[O-] [Bifenox]"
  LC retention time: "12.2 min"
- molecule: "CC(C)c1cc(Oc2ccccc2)cc(C(C)C)c1NC(=S)NC(C)(C)C [Diafenthiuron]"
  LC retention time: "13.7 min"
- molecule: "CCSCc1ccccc1OC(=O)NC [Ethiofencarb]"
  LC retention time: "8.89 min"
- molecule: "COC=C(C(=O)OC)c1ccccc1Oc1cc(Oc2ccccc2C#N)ncn1 [Azoxystrobin]"
  LC retention time: "10.6 min"
- molecule: "CCC(C)c1ccccc1OC(=O)NC (configuration not stated) [Fenobucarb]"
  LC retention time: "9.78 min"
- molecule: "CC(C)(C)C(O)C(Oc1ccc(Cl)cc1)n1cncn1 (configuration not stated) [Triadimenol]"
  LC retention time: "11.3 min"
- molecule: "NS(=O)(=O)c1cc(C(=O)O)c(NCc2ccco2)cc1Cl [Furosemide]"
  LC retention time: "6.6 min"
- molecule: "CCC(C)(C)NCC(O)c1cc(Cl)c(N)c(C(F)(F)F)c1 (configuration not stated) [Mapenterol]"
  LC retention time: "7.01 min"
- molecule: "CCOP(=S)(OCC)Oc1ccc([N+](=O)[O-])cc1 [Parathion]"
  LC retention time: "11.3 min"
- molecule: "C=CC=CCC1=C(C)C(OC(=O)C2C(C=C(C)C)C2(C)C)CC1=O (configuration not stated) [Pyrethrin I]"
  LC retention time: "13.7 min"
- molecule: "CC(C)(C)C(O)C(=Cc1ccc(Cl)cc1Cl)n1cncn1 (configuration not stated) [Diniconazole]"
  LC retention time: "12.2 min"
- molecule: "CCOc1ccc2c(c1)C(C)=CC(C)(C)N2 [Ethoxyquin]"
  LC retention time: "9.64 min"
- molecule: "COP(=S)(OC)Oc1ccc([N+](=O)[O-])cc1 [Parathion-methyl]"
  LC retention time: "9.6 min"
- molecule: "CCOP(=S)(OCC)SCCS(=O)(=O)CC [Disulfoton-sulfone]"
  LC retention time: "8.76 min"
- molecule: "COC(=O)C(C)Oc1ccc(Oc2cnc3cc(Cl)ccc3n2)cc1 (configuration not stated) [Quizalofop methyl]"
  LC retention time: "12.1 min"
- molecule: "O=C(NC(=O)c1c(F)cccc1F)Nc1cc(Cl)c(OC(F)(F)C(F)C(F)(F)F)cc1Cl (configuration not stated) [Lufenuron]"
  LC retention time: "9.67 min"
- molecule: "N#Cc1nn(-c2c(Cl)cc(C(F)(F)F)cc2Cl)c(N)c1S(=O)C(F)(F)F (configuration not stated) [Fipronil]"
  LC retention time: "11.3 min"
- molecule: "CC(C)(C)C(O)C(Oc1ccc(-c2ccccc2)cc1)n1cncn1 (configuration not stated) [Bitertanol]"
  LC retention time: "12 min"
- molecule: "CC(C)N(C(=O)SCC(Cl)=C(Cl)Cl)C(C)C [Tri-allate]"
  LC retention time: "13.3 min"
- molecule: "CN(C)S(=O)(=O)N(SC(F)(Cl)Cl)c1ccccc1 [Dichlofluanid]"
  LC retention time: "10.8 min"
- molecule: "Nc1ccc(S(=O)(=O)Nc2ccccn2)cc1 [Sulfapyridine]"
  LC retention time: "2.55 min"
- molecule: "CCOP(=S)(Oc1ccc(C#N)cc1)c1ccccc1 (configuration not stated) [Cyanofenphos]"
  LC retention time: "11.7 min"
- molecule: "CCCC1OC2CC3C4CCC5=CC(=O)C=CC5(C)C4C(O)CC3(C)C2(C(=O)CO)O1 (configuration not stated) [Budesonide]"
  LC retention time: "10.9 min"
- molecule: "CCOP(=S)(OCC)Oc1ccc2c(C)c(Cl)c(=O)oc2c1 [Coumaphos]"
  LC retention time: "12.4 min"
- molecule: "CNC(=O)ON=CC(C)(C)S(C)(=O)=O [Aldicarb sulfone]"
  LC retention time: "4.8 min"
- molecule: "CON(C)C(=O)Nc1ccc(Br)cc1 [Metobromuron]"
  LC retention time: "8.53 min"
- molecule: "Cc1cccc(Nc2ccccc2C(=O)O)c1C [Mefenamic acid]"
  LC retention time: "13.4 min"
- molecule: "CCNc1nc(Cl)nc(NC(C)(C)C#N)n1 [Cyanazine]"
  LC retention time: "7.05 min"
- molecule: "COc1cc2c(c3oc(=O)c4c(c13)CCC4=O)C1C=COC1O2 (configuration not stated) [Aflatoxin B1]"
  LC retention time: "7.97 min"
- molecule: "CC1(C)OC2CC3C4CCC5=CC(=O)C=CC5(C)C4(F)C(O)CC3(C)C2(C(=O)CO)O1 (configuration not stated) [Triamcinolone acetonide]"
  LC retention time: "9.42 min"
- molecule: "Cc1ccnc(NS(=O)(=O)c2ccc(N)cc2)n1 [Sulfamerazine]"
  LC retention time: "2.75 min"
- molecule: "CC(C)c1ccc(NC(=O)N(C)C)cc1 [Isoproturon]"
  LC retention time: "9.6 min"
- molecule: "CCOP(=S)(OCC)SCn1nnc2ccccc2c1=O [Azinphos-ethyl]"
  LC retention time: "10.8 min"
- molecule: "COC(=O)c1ccccc1CS(=O)(=O)NC(=O)Nc1nc(OC)cc(OC)n1 [Bensulfuron methyl]"
  LC retention time: "9.29 min"
- molecule: "CN(Cc1cc(Br)cc(Br)c1N)C1CCCCC1 [Bromhexine]"
  LC retention time: "14.1 min"
- molecule: "CCOc1cc(Oc2ccc(C(F)(F)F)cc2Cl)ccc1[N+](=O)[O-] [Oxyfluorfen]"
  LC retention time: "13.8 min"
- molecule: "COC(=O)C=C(C)OP(=O)(OC)OC [Mevinphos trans]"
  LC retention time: "4.95 min"
